For each of the molecules below, state its MIC50.
Assay: Antiviral activity against influenza A,H3N2 virus infected MDCK cell lines.
Assay type: functional
A number alone suffices; assume µg/mL.

[in] Provide measured MIC50 value, entry: NC(=O)c1ncn([C@@H]2O[C@H](CO)[C@@H](O)[C@H]2O)n1 [RIBAVIRIN]
[out] 5.6

[in] Provide measured MIC50 value, entry: C1CNC(C23CC4CC(CC(C4)C2)C3)C1 (configuration not stated)
[out] 12.4

[in] Provide measured MIC50 value, entry: CCN1CCCC1C12CC3CC(CC(C3)C1)C2 (configuration not stated)
[out] 58

[in] Provide measured MIC50 value, entry: NC1(C23CC4CC(CC(C4)C2)C3)CCCC1
[out] 6

[in] Provide measured MIC50 value, entry: CN1CCCCC12C1CC3CC(C1)CC2C3 (configuration not stated)
[out] 45

[in] Provide measured MIC50 value, entry: CN1CCCC1C12CC3CC(CC(C3)C1)C2 (configuration not stated)
[out] 60

Every entry's value here was drawn from ChEMBL document CHEMBL1129609.
